# Tested on: OVCAR-8 ovarian
# ASSAY_EXPLANATION: NCI tumour cell line growth inhibition, 48 h
READOUT_NAME: TGI (µM)
The response must be a number in µM with no trailing unit.

CC1(C)CCC(S(=O)(=O)c2ccc3c(c2)/C(=N\O)c2cc(S(=O)(=O)N4CCC(O)(c5cccc(C(F)(F)F)c5)CC4)ccc2-3)CC1    0.112
CC1=CC[C@@H]2[C@@H](CC[C@@]2(C)O)C(C)(C)[C@H]1CC[C@@H]1[C@@]2(C)CCC(=O)C(C)(C)O[C@@H]2CC[C@]1(C)O    62.1
CC(C)(C)C1CCC2c3c([nH]c4ccccc34)C3C(=O)N(c4cc(Br)cc(Br)c4)C(=O)C3C2C1 (centres undefined)    50.2

For the next question, use this compound.
IN: Endpoint output: TGI of `c1ccc2c(c1)O[As](O[As]1Oc3ccccc3O1)O2` . Value?
OUT: 15.4
